Origin of the recorded values: patent US20250250357A1

- test system: T1, monkey MSLN on HEK293T-monkey MSLN recombinant cells (monkey)
- T1 construct: Full-length precursor as transfected; processing on the cell is not described; also called HEK293-monkey MSLN
- T1 chain: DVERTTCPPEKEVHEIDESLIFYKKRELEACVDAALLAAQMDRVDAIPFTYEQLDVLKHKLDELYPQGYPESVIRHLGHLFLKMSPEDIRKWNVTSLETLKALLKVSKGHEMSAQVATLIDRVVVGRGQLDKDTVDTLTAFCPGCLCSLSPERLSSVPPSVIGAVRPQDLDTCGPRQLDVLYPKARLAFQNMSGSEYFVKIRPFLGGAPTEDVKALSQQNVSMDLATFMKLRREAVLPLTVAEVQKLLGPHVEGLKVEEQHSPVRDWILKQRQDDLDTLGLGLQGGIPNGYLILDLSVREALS
- assay procedure: FACS, HEK293T-monkey MSLN cells
measured endpoint: Maximum_MFI
Please append the unit to your numeric answer.

Tell me Maximum_MFI reported for F3.80.22-H4 (scFv, not shown: small tags and cut ends, also called S009-F3.80.22 humanized antibody VL1 + VH4) scFv: DIVMTQTPLSLPVTPGEPASISCRSSQSLEHNNGNTYLHWFLQKPGQSPQLLIYKVSNRFSGVPDRFSGSGSGTDFTLKISRVEAEDVGVYYCSQSTHVPFTFGQGTKLEIKGGGGSGGGGSGGGGSEVQLVQSGAEVKKPGATVKISCKASGYTFTDYEIHWVQQAPGKGLEWMGAFDPEIGGSAYNQKFKDRVTITADKSSSTAYMELSSLRSEDTAVYYCTDYYGSSSGYFDVWGTGTTVTVSS
357 MFI
